B1: IQUB (parent)
chain: KIREKEEWIKLDYHRRHNPKTNED

Variants of: B1
Test: protein stability index of a GFP-peptide fusion (GPS, HEK-293T) (PSI 1-6); higher = more stable;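 also: lentivirally expressed fusions sorted by FACS into six bins by GFP to DsRed ratio, PSI derived from sequencing read proportions per bin multiplied by bin number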
Details: c terminus: a fixed tail appended
Consider the following variants; for each one, report its protein stability index.

Please report the recorded protein stability index for `K20N` .
4.21

Can you share its protein stability index? I mean this variant: `K5F`
3.67

Quick one: protein stability index of `T21I` ?
4.33

Entry `T21M` has what protein stability index?
4.1

Any idea what its protein stability index is? The variant is `H17V`
4.87

Fill in: protein stability index of `E23Y` is ___
3.77

Can you share its protein stability index? I mean this variant: `W8D`
5.13

Using the record for `E4K` , report its protein stability index.
3.86

# map each variant to its protein stability index
1. E4F
2. D12K
3. K5N
4. H14W
5. I2W
6. E6W

3.84
4.54
4.7
3.73
4.26
2.61

Please state protein stability index for every variant in the list that follows.
1. H17N
2. H17Y
3. I9Y
4. T21F
5. P19C
6. H17K
7. H17S

1. 4.16
2. 3.99
3. 4.73
4. 4.53
5. 4.61
6. 4.23
7. 4.83

Which protein stability index is reported for this variant? `K5P`
4.63
